Provenance of the data: paper PMC5034043

- target_or_system: horse spleen apoferritin (Equus caballus)
- Construct: soluble protein model horse spleen apoferritin; from tissue; host or cells: horse spleen
- assay_procedure: 1-AMA displacement fluorescence assay
- Assay type: binding
reported_metric: Kd (nM)
Give bare numbers, in nM.

Query: # return Kd of CC(C)c1cccc(C(C)C)c1O [propofol, 2,6-diisopropylphenol, reference compound] (system: horse spleen apoferritin (Equus caballus))
Reply: 2400

----------
- target_or_system: horse spleen apoferritin (Equus caballus, UniProt P02791)
- Construct: soluble protein model horse spleen apoferritin; from tissue; host or cells: horse spleen
- Sequence (P02791 2-175 limits assumed): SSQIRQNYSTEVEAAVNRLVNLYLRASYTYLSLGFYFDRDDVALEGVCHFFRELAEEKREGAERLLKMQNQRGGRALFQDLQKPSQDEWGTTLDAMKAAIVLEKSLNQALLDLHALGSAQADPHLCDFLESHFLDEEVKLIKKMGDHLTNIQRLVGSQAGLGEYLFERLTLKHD
- assay_procedure: Isothermal titration calorimetry binding to apoferritin
- conditions_used: one-site model, read-out: KD (95% CI), ITC
- Protocol: Isothermal titration calorimetry isotherms for binding to soluble protein model horse spleen apoferritin were conducted as reported previously ([31]) and were resolved using a VP-isothermal titration calorimetry microcalorimeter (MicroCal, Inc., Northampton, MA). Origin 5.0 software was used to best-fit thermodynamic parameters to the heat profiles.
reported_metric: Kd (µM)
Numbers only, in µM.

>  <compound>
CC(C)c1cccc(C(C)C)c1O [propofol, 2,6-diisopropylphenol, reference compound]

>  <Kd / µM>
9

$$$$

Now for another entry.
Query: # return Kd of `C#CCOCc1ccc(C2(C(F)(F)F)N=N2)cc1O` (system: horse spleen apoferritin (Equus caballus, UniProt P02791))
Reply: 22

----------
- target_or_system: α1β2γ2L GABAA receptors (Homo sapiens, UniProt P14867+P47870)
- Construct: expressed in transfected cells; host or cells: Xenopus laevis oocytes
- Sequence (P14867 28-456): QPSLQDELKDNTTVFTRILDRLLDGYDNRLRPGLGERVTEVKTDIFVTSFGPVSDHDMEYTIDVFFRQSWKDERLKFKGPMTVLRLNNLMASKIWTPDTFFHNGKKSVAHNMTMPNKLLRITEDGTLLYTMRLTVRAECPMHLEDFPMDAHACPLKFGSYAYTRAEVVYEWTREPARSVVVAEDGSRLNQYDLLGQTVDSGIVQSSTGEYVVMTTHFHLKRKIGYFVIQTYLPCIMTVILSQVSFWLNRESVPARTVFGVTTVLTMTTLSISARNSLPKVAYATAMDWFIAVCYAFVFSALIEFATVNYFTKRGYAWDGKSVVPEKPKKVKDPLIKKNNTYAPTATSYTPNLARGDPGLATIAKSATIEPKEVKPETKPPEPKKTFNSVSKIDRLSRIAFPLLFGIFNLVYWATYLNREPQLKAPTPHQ
- Sequence (P47870 25-512 limits assumed): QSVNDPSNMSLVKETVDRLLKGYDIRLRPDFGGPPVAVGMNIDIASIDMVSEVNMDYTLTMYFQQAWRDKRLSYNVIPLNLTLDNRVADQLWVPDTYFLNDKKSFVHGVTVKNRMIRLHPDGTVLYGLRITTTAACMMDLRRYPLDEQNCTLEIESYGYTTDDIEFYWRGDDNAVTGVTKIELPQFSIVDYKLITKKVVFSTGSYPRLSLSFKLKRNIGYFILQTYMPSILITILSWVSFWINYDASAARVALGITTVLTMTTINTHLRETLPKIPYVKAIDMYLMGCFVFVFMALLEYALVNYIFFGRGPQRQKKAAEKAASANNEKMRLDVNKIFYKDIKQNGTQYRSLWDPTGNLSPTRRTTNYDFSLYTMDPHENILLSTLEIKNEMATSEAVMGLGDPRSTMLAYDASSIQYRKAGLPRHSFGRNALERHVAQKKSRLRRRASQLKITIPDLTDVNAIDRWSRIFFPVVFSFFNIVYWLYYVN
- Sequence (P18507 40-475 partner): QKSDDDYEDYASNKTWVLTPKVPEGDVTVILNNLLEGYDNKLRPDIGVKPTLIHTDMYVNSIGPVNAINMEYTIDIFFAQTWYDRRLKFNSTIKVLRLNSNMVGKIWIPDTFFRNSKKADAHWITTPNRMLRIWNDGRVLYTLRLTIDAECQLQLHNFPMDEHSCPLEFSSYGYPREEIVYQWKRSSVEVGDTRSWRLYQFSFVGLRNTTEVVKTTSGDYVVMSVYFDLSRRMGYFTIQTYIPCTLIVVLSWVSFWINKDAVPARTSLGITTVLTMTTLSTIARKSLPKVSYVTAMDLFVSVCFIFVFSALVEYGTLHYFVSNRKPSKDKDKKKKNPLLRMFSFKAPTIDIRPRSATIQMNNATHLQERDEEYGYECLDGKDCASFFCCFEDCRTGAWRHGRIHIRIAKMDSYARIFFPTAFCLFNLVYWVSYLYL
- assay_procedure: cell-based
- conditions_used: read-out: EC50 for positive modulation
reported_metric: pEC50
Numbers only, as −log10 of the molar value.

Query: Tell me measured pEC50 for `C#CCOCc1ccc(C2(C(F)(F)F)N=N2)cc1O` please.
Reply: 4.31
